Test system: COLO 205 colon
Experiment: NCI-60 one-dose screen, 48 h (100 = growth as untreated, 0 = no growth, -100 = all killed)
Conditions: 10 µM unless noted
This is part of a sample that, as a whole, favours compounds with a hit. Of some 83,000 tested, about 20% had one in any assay.
Record MET whenever growth is at 40% or higher; record NOT MET when lower.

[ask] Say whether Clc1nc(N2CCC[N+]3(CC2)CC[N+]2(CCCNCC2)CC3)nc(N2CCC[N+]3(CC2)CC[N+]2(CCCNCC2)CC3)n1 (stereo not drawn) shows growth of 40% or more.
[reply] MET

[ask] Record: Cn1cc(-c2nc(-c3c[nH]c4c(Cl)nccc34)cs2)c2ccccc21
[reply] MET

[ask] Record: COc1ccc(NC(=O)c2sc3nc(C)c(C(=O)c4ccccc4)cc3c2N)cc1
[reply] MET

[ask] Record: CCN1CCN(C(=O)[C@]23CC[C@@H](C)[C@H](C)[C@@H]2C2=CC[C@@H]4[C@@]5(C)C/C(=C/c6ccncc6)C(=O)C(C)(C)[C@@H]5CC[C@@]4(C)[C@]2(C)CC3)CC1
[reply] NOT MET

[ask] Record: CCN1C(=O)N(CC)C2C1NN=c1s/c(=C3\C(=O)N(C)c4ccccc43)c(=O)n12 (stereo not drawn)
[reply] NOT MET

[ask] Record: CCOC(=O)c1ccc2c(c1)c1c(C)c3cnccc3c(C)c1n2C
[reply] NOT MET

[ask] Record: C=CCn1c(SCC(=O)Nc2ccc(C(=O)/C=C/c3ccc(Cl)cc3)cc2)nnc1-c1ccc(Cl)c(Cl)c1
[reply] MET

* * *

Tested on: HOP-62 NSCLC
Assay: NCI-60 one-dose screen, 48 h (100 = growth as untreated, 0 = no growth, -100 = all killed)
Conditions: 10 µM unless noted
Description: Growth inhibition of the HOP-62 human Non-Small Cell Lung tumor cell line is measured as a screen for anti-cancer activity. Cells are grown in 96 well plates and exposed to the test compound for 48 hours. Compounds are tested at a single concentration, which is 10^-5 M for most compounds. The reported endpoint is percent growth (GI% or GIPRCNT), where numbers from 0 - 100% represent growth inhibition, and numbers from -100% - 0 represent cell death. […]
About 83,000 compounds went through this panel and 20% of them were active in at least one assay; those are over-represented in the sample as a whole.
Task for the reader: assign each of the following compounds its reported growth.
The reply should contain only the number, in %.

[ask] What measured growth is associated with COc1cc2c(cc1OC)CC[N+](CCC[N+](C)(C)C)=C2 on HOP-62 NSCLC?
[reply] 84

[ask] Record: CN1C(=O)N(C)C2C1NN=c1s/c(=C\c3ccc(F)cc3)c(=O)n12 (stereo not given)
[reply] 46.7

[ask] Record: CCOC(=O)c1c(NC(=S)Nc2ccc([N+](=O)[O-])cc2)sc2c1CCCCC2
[reply] 102

[ask] Record: Oc1cccc(-c2nc(-c3n[nH]c(=S)n3-c3ccccc3)cc3c2[nH]c2ccccc23)c1
[reply] 28.4

[ask] Record: CN(C)CCCN(CCC1CCCCC1)CCC1CCCCC1
[reply] 64.3

* * *

Test system: SF-539 CNS
Assay: NCI-60 one-dose screen, 48 h (100 = growth as untreated, 0 = no growth, -100 = all killed)
Details: 10 µM unless noted
Compounds without any hit were thinned out: in the full panel of roughly 83,000, 20% have a hit.
Okay, here is how we bin by growth: lower bin = under 70%, middle bin = from 70% up to 90%, upper bin = 90% and over

[ask] Bin? O=c1c(Cc2ccc(F)cc2)cc(-c2ccccc2)nn1C/C(=N/O)c1ccccc1
[reply] middle bin

[ask] Record: O=C1C2C(c3cccs3)C=C(c3ccc(Cl)cc3)N2C(=S)N1c1ccccc1 (stereo not drawn)
[reply] upper bin

[ask] Record: Cc1cc(C)n(C(=O)CSc2nc3sc4c(c3c(=O)n2-c2ccccc2)CCCCC4)n1
[reply] upper bin

[ask] Record: O=C(OCC(O)C(=O)NC12CC3CC(CC(C3)C1)C2)c1cccc(Br)c1 (stereo not drawn)
[reply] upper bin

[ask] Record: Cc1ccc(Nc2nc(N)nc(N)c2N=O)cc1Cl
[reply] middle bin

[ask] Record: COc1ccc(S(=O)(=O)Oc2ccc(-c3sc4cc(OS(=O)(=O)c5ccc(OC)cc5)ccc4c3C(=O)c3ccc(OCCN4CCCCC4)cc3)cc2)cc1
[reply] upper bin

[ask] Record: COc1ccc(-n2c(=O)n(-c3ccc(-c4nc5ccc(F)cc5s4)cc3)c(=O)c3cccnc32)cc1
[reply] upper bin

[ask] Record: Oc1ccc(C(c2ccc(O)cc2)c2ccc(Cl)cn2)cc1
[reply] middle bin

[ask] Record: C=CN(C(=O)N1CCN(c2cc3c(cc2F)c(=O)c(C(=O)O)cn3C2CC2)CC1)c1nc(-c2ccc(C)cc2)cs1
[reply] lower bin

[ask] Record: CCN(CC)CCCC(Nc1c2ccc(Cl)cc2nc2ccc(OC)cc12)c1ccncc1 (stereo not drawn)
[reply] lower bin

[ask] Record: Cc1cc2c(C(C)C)c(O)c(O)c(/C=N/O)c2c(O)c1-c1c(C)cc2c(C(C)C)c(O)c(O)c(/C=N/O)c2c1O
[reply] lower bin

[ask] Record: CSc1nn2c(-c3cc4cc(Br)ccc4oc3=O)ccnc2c1C#N
[reply] upper bin

[ask] Record: Cc1ccc(OCCOCCOCCOCCOc2ccc(C)n(O)c2=S)c(=S)n1O
[reply] lower bin

[ask] Record: CCOC(=O)C1=C(c2ccccc2)N=C2N(c3ccccc3)N=C(C(C)=O)N2C1c1ccc(Br)cc1 (stereo not drawn)
[reply] upper bin

[ask] Record: COc1cc(OC)cc(C(=O)Nc2cnc(Nc3ccc(N4CCOCC4)nc3)nc2Oc2ccc(C(F)(F)F)cc2)c1
[reply] lower bin

[ask] Record: CC(C)(C)n1cc(-c2ccnc(NCCNS(=O)(=O)c3cccc4ccccc34)c2)c(-c2cccc(O)c2)n1
[reply] middle bin

[ask] Record: Nc1n[nH]c2cccc(C#Cc3cccc(C(=O)Nc4ccc(Cl)c(C(F)(F)F)c4)c3)c12
[reply] lower bin

[ask] Record: COCCn1cc(-c2nc(-c3cc4cccnc4n3C)cs2)c2cc(OC)ccc21
[reply] lower bin

[ask] Record: CCOC(=O)c1c2c(n3ccc(NC(=O)CCN4CCCC4)cc13)C(=O)c1ncccc1C2=O
[reply] lower bin

[ask] Record: COc1ccc(/C(C)=C(\c2ccc(Cl)cc2)c2ccc(OCCCN(C)C)cc2)cc1
[reply] middle bin

[ask] Record: CS(=O)(=O)Nc1cc(-c2ccc3ncnc(Nc4cccc(Cl)c4)c3c2)cnc1Cl
[reply] lower bin

[ask] Record: CC1(C)CC[C@]2(CO)CC[C@]3(C)[C@H](CC[C@@H]4[C@@]5(C)CC[C@H](O)C(C)(C)[C@@H]5CC[C@]43C)[C@H]2[C@H]1O
[reply] lower bin

[ask] Record: O=C1/C(=C/c2ccccc2)COc2ccc(O)cc21
[reply] upper bin

[ask] Record: CCOc1ccc(-c2cc(C3(S(=O)(=O)c4ccc(C)cc4)CC=CC3)on2)cc1
[reply] upper bin

[ask] Record: CC(=O)c1c(/C=C/c2ccc(C)cc2)c2ccccc2[nH]c1=O
[reply] middle bin

[ask] Record: O=C(Nc1ccc(Cl)cc1)C1=NCCCCN1
[reply] upper bin

[ask] Record: CN(C)c1ccc(/C=C/C2=[N+](C)c3ccccc3C2(C)C)cc1
[reply] lower bin

[ask] Record: CCNCCNc1c(C)c(-c2ccc(C(F)(F)F)cc2)c(C#N)c2nc3ccccc3n12
[reply] middle bin

[ask] Record: Cc1nc2c(c(-c3ccccc3)n1)Cc1c(ccc3ccccc13)O2
[reply] upper bin

* * *

Tested on: SR leukemia
Test: NCI-60 one-dose screen, 48 h (100 = growth as untreated, 0 = no growth, -100 = all killed)
Settings: 10 µM unless noted
The panel holds about 83,000 compounds, 20% with a hit somewhere; the sample as a whole holds those more often.
Each record is given Satisfied if its reported growth is strictly below 80%. Records at or above 80% are given Not satisfied.

[ask] A record lists O=C1C=CC2(O)OC(c3ccccc3)CC(=O)C2=C1O (stereo not drawn) . Is its growth below 80%?
[reply] Satisfied

[ask] Record: COc1ccc(C2=NN(C=O)C(c3ccc(Oc4nc5c(c(=O)n(C)c(=O)n5C)n4C)c(OC)c3)C2)cc1 (stereo not drawn)
[reply] Not satisfied

[ask] Record: COc1ccc(C(=O)/C=C/Nc2cc(-c3ccccc3)nn2-c2ccccc2)cc1
[reply] Not satisfied

[ask] Record: C=C1C(=O)O[C@H]2[C@H]1CC/C(CNC(=O)/C=C/c1cc(OC)c(OC)c(OC)c1)=C\CC[C@@]1(C)O[C@@H]21
[reply] Satisfied

[ask] Record: Cc1cc([N+](=O)[O-])ccc1NC(=O)c1ccc2c(c1)nc(-c1ccccc1)n2C1CCCCC1
[reply] Satisfied

[ask] Record: Nc1n[nH]c2cccc(C#Cc3cccc(C(=O)Nc4ccc(Cl)c(C(F)(F)F)c4)c3)c12
[reply] Satisfied
